// provenance: ChEMBL document CHEMBL3232888

Kindly supply the reported inhibition values for the records listed here.
- System: Pseudomonas aeruginosa
- PROTOCOL_NOTES: Antagonist activity at Pseudomonas aeruginosa PqsR expressed in Escherichia coli DH5alpha assessed as inhibition of PQS-induced transcriptional activity at 5 uM by beta-galactosidase reporter gene assay relative to PQS
Give bare numbers, in %.

| QUERY_SMILES | inhibition [%] |
| --- | --- |
| CCCCCCCc1[nH]c2ccc([N+](=O)[O-])cc2c(=O)c1CO | 100 |

Give inhibition for each listed item.
1. CCOCCCCc1cc(=O)c2ccccc2[nH]1
2. CCCCCOCc1cc(=O)c2cc(C(F)(F)F)ccc2[nH]1
3. CCCCCCCc1[nH]c2ccccc2c(=O)c1C(=O)O
4. CCCCCCCc1[nH]c2ccncc2c(=O)c1C(=O)OCC
5. CCCCCCCc1[nH]c2ccccc2c(=O)c1[N+](=O)[O-]
6. CCOCCCCc1cc(=O)c2cc(C(F)(F)F)ccc2[nH]1

Response:
42
100
41
76
17
69

Give inhibition for each listed item.
1. CCCCCCCc1[nH]c2ccc([N+](=O)[O-])cc2c(=O)c1O
2. CCCCCCCc1cc(=O)c2cnccc2[nH]1
3. CCCCCCCc1[nH]c2ccc([N+](=O)[O-])cc2c(=O)c1C(N)=O
4. CCOCCCCc1[nH]c2ccc([N+](=O)[O-])cc2c(=O)c1C(=O)O

Response:
[-29, 2, 100, 33]

###

- System: Pseudomonas aeruginosa
- PROTOCOL_NOTES: Agonist activity at Pseudomonas aeruginosa PqsR expressed in Escherichia coli DH5alpha assessed as induction of transcriptional activity at 5 uM by beta-galactosidase reporter gene assay relative to PQS
MEASURED_PROPERTY: Activity (%)
Numbers only, in %.

These solved cases illustrate the format of a correct answer.
| QUERY_SMILES | TESTED_SYSTEM | Activity [%] |
| --- | --- | --- |
| CCCCCCCc1[nH]c2ccc([N+](=O)[O-])cc2c(=O)c1C(=O)O | Pseudomonas aeruginosa | 0.78 |
| CCCCCCCc1[nH]c2ccccc2c(=O)c1[N+](=O)[O-] | Pseudomonas aeruginosa | 0.84 |
| CCCCCCCc1[nH]c2ccccc2c(=O)c1C(N)=O | Pseudomonas aeruginosa | 0.65 |
| CCCCCCCc1[nH]c2ccc([N+](=O)[O-])cc2c(=O)c1C(=O)NO | Pseudomonas aeruginosa | 0.3 |
| CCCCCCCc1[nH]c2ccncc2c(=O)c1C(=O)OCC | Pseudomonas aeruginosa | 0.02 |
| CCOCCCCc1[nH]c2ccc([N+](=O)[O-])cc2c(=O)c1C(=O)O | Pseudomonas aeruginosa | 0.42 |

Give Activity for each listed item.
1. CCCCCCCc1cc(OC)c2ccccc2n1
2. CCOCCCCc1cc(=O)c2cc([N+](=O)[O-])ccc2[nH]1
3. CCCCCCCc1[nH]c2ccccc2c(=O)c1CO
4. CCCCCOCc1[nH]c2ccc([N+](=O)[O-])cc2c(=O)c1C(=O)OCC
5. CCCCCCCc1cc(=O)c2cc(C(F)(F)F)ccc2n1C
6. CCCCCCCc1[nH]c2ccc([N+](=O)[O-])cc2c(=O)c1C(N)=O

Response:
1: 0.03; 2: 0.13; 3: 0.49; 4: 0; 5: 0; 6: 0

Give Activity for each listed item.
1. CCOCCCCc1cc(=O)c2ccccc2[nH]1
2. CCCCCCCc1[nH]c2ccccc2c(=O)c1C(=O)NO
3. CCCCCCCc1[nH]c2ccc([N+](=O)[O-])cc2c(=O)c1CO
4. CCCCCCc1cc(=O)c2cc(C(F)(F)F)ccc2n1C
5. CCCCCCCc1cc(=O)c2cnccc2[nH]1
6. CCCCCOCc1cc(=O)c2cc(C(F)(F)F)ccc2[nH]1
7. CCCCCOCc1cc(=O)c2ccccc2[nH]1

Response:
[0.31, 0.83, 0, 0, 0.82, 0, 0.89]
